Data credit: patent US8865714B2

studyTarget: human H-PGDS (Homo sapiens (Human))
protocolText: Hematopoietic prostaglandin D synthase (H-PGDS) inhibiting action
Format: biochemical
pIC50: −log10 of the molar value.
measurementLabel: pIC50

Enquiry: Given the compound O=C(Nc1ccc(C(F)(F)F)cc1)N1CCN(C(=O)c2cccc(F)n2)CC1 [Reference Example 18] , what is its reported pIC50?
Return: < 6.00

====

studyTarget: human H-PGDS (Homo sapiens (Human))
protocolText: Hematopoietic prostaglandin D synthase (H-PGDS) inhibiting action
Format: biochemical
assayContext: human H-PGDS, [14C] prostaglandin H2 10 μM; read-out: IC50
measurementLabel: IC50 (nM)
Numbers only; they are read as nM.

>>> recordednumber("O=C(Nc1ccc(N2CCC(C(=O)N3CCOCC3)CC2)cc1)N1CCN(C(=O)c2cccs2)CC1 [Reference Example 4]")
340
>>> recordednumber("O=C(Nc1ccc(N2CCC(C(=O)N3CCOCC3)CC2)cc1)N1CCN(C(=O)c2ccccc2)CC1 [Reference Example 11]")
437
>>> recordednumber("O=C(Nc1ccc(N2CCC(C(=O)N3CCOCC3)CC2)cc1)N1CCN(C(=O)c2ccsc2)CC1 [Reference Example 5]")
732

Enquiry: Param item = Cn1cccc1C(=O)N1CCN(C(=O)Nc2ccc(N3CCC(O)CC3)cc2)CC1 ; retrieve measured IC50.
Return: 58

====

Each item that follows carries a reported inhibition at 0.1 µM.
studyTarget: UniProt O60760
protocolText: Hematopoietic prostaglandin D synthase (H-PGDS) inhibiting action
Format: biochemical
assayContext: compound at 0.1 μM, relative to the control group; human H-PGDS, [14C] prostaglandin H2 10 μM; read-out: H-PGDS inhibition rate (%)
Give just the numeric value; % need not be written.

>>> recordednumber("Cn1cccc1C(=O)N1CCN(C(=O)Nc2ccc(N3CCC(O)CC3)cc2)CC1")
62.2
>>> recordednumber("Cn1cccc1C(=O)N1CCN(C(=O)Nc2ccc(N3CCC(CCN4CCOCC4)CC3)cc2)CC1")
68.3
>>> recordednumber("Cc1nc(C)n(CCC2CCN(c3ccc(NC(=O)N4CCN(C(=O)c5cccn5C)CC4)cc3)CC2)n1")
54.8
>>> recordednumber("Cn1cccc1C(=O)N1CCN(C(=O)Nc2ccc(N3CCC(CCn4ccnn4)CC3)cc2)CC1")
66.7
>>> recordednumber("Cn1cccc1C(=O)N1CCN(C(=O)Nc2ccc(N3CCC(C(=O)N4CCCCC4)CC3)cc2)CC1")
73.6
>>> recordednumber("Cn1cccc1C(=O)N1CCN(C(=O)Nc2ccc(N3CCC(CCn4cccn4)CC3)cc2)CC1")
74.3
>>> recordednumber("Cn1cccc1C(=O)N1CCN(C(=O)Nc2ccc(N3CCC(C(=O)NCc4cccnc4)CC3)cc2)CC1")
61.7
>>> recordednumber("Cn1cccc1C(=O)N1CCN(C(=O)Nc2ccc(N3CCC(CCn4cncn4)CC3)cc2)CC1")
58.9

Next item in the queue.
Enquiry: Which inhibition at 0.1 µM value belongs to Cn1cccc1C(=O)N1CCN(C(=O)Nc2ccc(N3CCC(C(=O)NCCN4CCOCC4)CC3)cc2)CC1 ?
Return: 61.1

====

studyTarget: human H-PGDS (Homo sapiens (Human))
protocolText: Hematopoietic prostaglandin D synthase (H-PGDS) inhibiting action
Format: biochemical
assayContext: human H-PGDS, [14C] prostaglandin H2 10 μM; read-out: IC50
pIC50: −log10 of the molar value.
measurementLabel: pIC50

>>> result("Cn1ccc(C(=O)N2CCN(C(=O)Nc3ccc(N4CCC(C(=O)N5CCOCC5)CC4)cc3)CC2)c1 [Reference Example 3]")
"< 6.00"
>>> result("O=C(Nc1ccc(N2CCC(C(=O)N3CCOCC3)CC2)cc1)N1CCN(C(=O)c2ccno2)CC1 [Reference Example 8]")
"< 6.00"
>>> result("O=C(Nc1ccc(N2CCC(C(=O)N3CCOCC3)CC2)cc1)N1CCN(C(=O)C2CCCC2)CC1 [Reference Example 10]")
"< 6.00"

Consider the additional compound presented here.
Enquiry: Which pIC50 value is on record for Cn1cccc1C(=O)N1CCN(C(=O)Nc2ccc(N3CCC(CCn4cncn4)CC3)cc2)CC1 [Example 8] ?
Return: 7.21

====

studyTarget: human H-PGDS (Homo sapiens (Human), UniProt O60760)
Sequence (O60760 whole entry): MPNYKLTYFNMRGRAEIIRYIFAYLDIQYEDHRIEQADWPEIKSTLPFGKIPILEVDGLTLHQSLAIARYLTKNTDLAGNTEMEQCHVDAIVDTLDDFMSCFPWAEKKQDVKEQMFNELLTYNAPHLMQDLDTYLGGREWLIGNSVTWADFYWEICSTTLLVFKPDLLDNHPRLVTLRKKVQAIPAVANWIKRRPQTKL
protocolText: Hematopoietic prostaglandin D synthase (H-PGDS) inhibiting action
Assay type: biochemical
assayContext: compound at 0.1 μM, relative to the control group; human H-PGDS, [14C] prostaglandin H2 10 μM
# reported H-PGDS inhibition rate (%); entries follow
# output: bare number, implied unit %

Enquiry: Please tell me: H-PGDS inhibition rate (%) of O=C(Nc1ccc(N2CCC(C(=O)N3CCOCC3)CC2)cc1)N1CCN(C(=O)C2CCCC2)CC1 [Reference Example 10] , system human H-PGDS (Homo sapiens (Human), UniProt O60760)?
Return: −2.2

Enquiry: Could you do the same for Cn1ccnc1C(=O)N1CCN(C(=O)Nc2ccc(N3CCC(C(=O)N4CCOCC4)CC3)cc2)CC1 [Reference Example 9] , please?
Return: −2.8

Enquiry: And what about the compound O=C(Nc1ccc(N2CCC(C(=O)N3CCOCC3)CC2)cc1)N1CCN(C(=O)c2ccsc2)CC1 [Reference Example 5] ?
Return: 9.4

Enquiry: Next record, please: Cn1ccc(C(=O)N2CCN(C(=O)Nc3ccc(N4CCC(C(=O)N5CCOCC5)CC4)cc3)CC2)c1 [Reference Example 3]
Return: −4.8

Enquiry: Cool, now O=C(Nc1ccc(N2CCC(C(=O)N3CCOCC3)CC2)cc1)N1CCN(C(=O)c2ccoc2)CC1 [Reference Example 7]
Return: −4.2

Enquiry: # iterate: O=C(Nc1ccc(N2CCC(C(=O)N3CCOCC3)CC2)cc1)N1CCN(C(=O)c2ccno2)CC1 [Reference Example 8]
Return: −6.6

Enquiry: What do you get for O=C(Nc1ccc(N2CCC(C(=O)N3CCOCC3)CC2)cc1)N1CCN(C(=O)c2ccco2)CC1 [Reference Example 6] ?
Return: −2.7

Enquiry: Same question, O=C(Nc1ccc(N2CCC(C(=O)N3CCOCC3)CC2)cc1)N1CCN(C(=O)c2cccs2)CC1 [Reference Example 4] this time
Return: 18.0

Enquiry: Query O=C(Nc1ccc(N2CCC(C(=O)N3CCOCC3)CC2)cc1)N1CCN(C(=O)c2ccccc2)CC1 [Reference Example 11] next
Return: 15.8

====

Below: a set of entries, each annotated with reported IC50.
studyTarget: human H-PGDS (Homo sapiens (Human), UniProt O60760)
protocolText: Hematopoietic prostaglandin D synthase (H-PGDS) inhibiting action
Format: biochemical
assayContext: human H-PGDS, [14C] prostaglandin H2 10 μM; read-out: IC50

Reference set, count: 2
>>> result("Cn1ccnc1C(=O)N1CCN(C(=O)Nc2ccc(N3CCC(C(=O)N4CCOCC4)CC3)cc2)CC1 [Reference Example 9]")
"> 1 µM"
>>> result("O=C(Nc1ccc(N2CCC(C(=O)N3CCOCC3)CC2)cc1)N1CCN(C(=O)c2ccco2)CC1 [Reference Example 6]")
"> 1 µM"

Pending molecule:
Enquiry: Hi! What's the reported IC50 for O=C(Nc1ccc(N2CCC(C(=O)N3CCOCC3)CC2)cc1)N1CCN(C(=O)c2ccoc2)CC1 [Reference Example 7] on human H-PGDS (Homo sapiens (Human), UniProt O60760)?
Return: > 1 µM

====

studyTarget: human H-PGDS (Homo sapiens (Human), UniProt O60760)
protocolText: Hematopoietic prostaglandin D synthase (H-PGDS) inhibiting action
Format: biochemical
assayContext: compound at 0.1 μM, relative to the control group; human H-PGDS, [14C] prostaglandin H2 10 μM; read-out: H-PGDS inhibition rate (%)
measurementLabel: inhibition at 0.1 µM (%)
The response must be a number in % with no trailing unit.

Enquiry: Name the recorded inhibition at 0.1 µM for Cn1cccc1C(=O)N1CCN(C(=O)Nc2ccc(N3CCC(CN4CCOCC4)CC3)cc2)CC1 .
Return: 61.5

Enquiry: Entry to check: Cn1cccc1C(=O)N1CCN(C(=O)Nc2ccc(N3CCC(CCCn4ccnn4)CC3)cc2)CC1
Return: 72.7

Enquiry: Follow-up item: CN1CCN(C(=O)C2CCN(c3ccc(NC(=O)N4CCN(C(=O)c5cccn5C)CC4)cc3)CC2)CC1
Return: 61.3

Enquiry: Now the same for Cn1cccc1C(=O)N1CCN(C(=O)Nc2ccc(N3CCC(CCn4cncn4)C3)cc2)CC1 (stereo not shown)
Return: 55.5
